Readings of NanoBRET Fold Response for the listed compounds
# target: ADRB1 (Homo sapiens)
# Construct: purchased Promega (in-house HiBiT-GPCR construct library, NanoBRET)
# Sequence (P08588 whole entry): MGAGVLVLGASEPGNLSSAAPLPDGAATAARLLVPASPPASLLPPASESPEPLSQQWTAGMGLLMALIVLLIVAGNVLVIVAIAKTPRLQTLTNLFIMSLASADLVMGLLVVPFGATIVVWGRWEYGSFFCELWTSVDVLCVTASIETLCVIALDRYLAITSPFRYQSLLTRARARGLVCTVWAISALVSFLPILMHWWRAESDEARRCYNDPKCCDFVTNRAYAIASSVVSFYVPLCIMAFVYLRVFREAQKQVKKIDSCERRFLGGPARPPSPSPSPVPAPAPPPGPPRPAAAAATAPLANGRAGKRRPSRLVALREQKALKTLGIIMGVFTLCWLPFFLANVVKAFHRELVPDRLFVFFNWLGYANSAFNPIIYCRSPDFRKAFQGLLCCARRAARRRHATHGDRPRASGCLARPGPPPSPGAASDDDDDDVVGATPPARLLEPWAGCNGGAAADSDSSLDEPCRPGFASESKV
# assay comment: NanoBRET screen HiBiT-ADRB1 in HEK293
# Format: binding
# experimental parameters: ADRB1; tracer 1μM

# compound, target, NanoBRET Fold Response
data = [
    ("O=C(CCc1ccc2n1[B-](F)(F)[N+]1=C(c3ccc[nH]3)C=CC1=C2)NCCOCCOCCNC(=O)OCCOCCN1CCN(C2=Nc3ccccc3Sc3ccccc32)CC1", "ADRB1 (Homo sapiens)", 0.91),
    ("Cc1nc2n(c(=O)c1CCN1CCC(c3noc4cc(F)ccc34)CC1)CCCC2OC(=O)NCCOCCOCCOCCOCCNC(=O)CCc1ccc2n1[B-](F)(F)[N+]1=C(c3ccc[nH]3)C=CC1=C2 (centres unmarked)", "ADRB1 (Homo sapiens)", 1.05),
    ("CC(C)N(CC[C@H](c1ccccc1)c1cc(CCNC(=O)c2ccc(CNC(=O)CCc3ccc4n3[B-](F)(F)[N+]3=C(c5ccc[nH]5)C=CC3=C4)cc2)ccc1O)C(C)C", "ADRB1 (Homo sapiens)", 1.10),
    ("CC(C)N(CC[C@H](c1ccccc1)c1cc(CCNC(=O)CCOCCOCCOCCOCCNC(=O)CCc2ccc3n2[B-](F)(F)[N+]2=C(c4ccc[nH]4)C=CC2=C3)ccc1O)C(C)C", "ADRB1 (Homo sapiens)", 0.99),
    ("Cc1cc2c(s1)Nc1ccccc1N=C2N1CCN(CCCNC(=O)CCOCCOCCOCCOCCNC(=O)CCc2ccc3n2[B-](F)(F)[N+]2=C(c4ccc[nH]4)C=CC2=C3)CC1", "ADRB1 (Homo sapiens)", 0.97),
]

###

# target: OXER1 (Homo sapiens)
# Construct: purchased Promega (in-house HiBiT-GPCR construct library, NanoBRET)
# Sequence (Q8TDS5 whole entry): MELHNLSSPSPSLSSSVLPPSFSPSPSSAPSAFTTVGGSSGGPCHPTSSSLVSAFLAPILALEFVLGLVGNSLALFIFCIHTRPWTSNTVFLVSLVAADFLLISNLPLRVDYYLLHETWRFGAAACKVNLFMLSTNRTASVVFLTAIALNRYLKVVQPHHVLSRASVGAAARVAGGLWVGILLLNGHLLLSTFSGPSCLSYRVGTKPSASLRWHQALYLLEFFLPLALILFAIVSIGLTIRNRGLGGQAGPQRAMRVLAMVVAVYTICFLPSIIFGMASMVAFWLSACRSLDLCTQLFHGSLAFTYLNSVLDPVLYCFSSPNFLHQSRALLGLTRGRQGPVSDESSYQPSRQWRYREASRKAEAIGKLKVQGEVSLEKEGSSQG
# assay comment: NanoBRET screen HiBiT-OXER1 in HEK293
# Assay type: binding
# experimental parameters: OXER1; tracer 1μM
# Experimental: Each tracer candidate was screened across the entire library of HiBiT-GPCR constructs using NanoBRET as the detection modality. As depicted in Figure 4A, the specificity of interactions was evaluated through decrease in BRET due to competitive displacement of a bound tracer by excess parental compound. Each tracer was analyzed for binding to each HiBiT-GPCR fusion in the absence and in the presence of competing parental compound. […]
Readings of NanoBRET Fold Response for the listed compounds
assay metric: NanoBRET Fold Response

# compound, assay metric, experimental value
rows = [
    ("COc1ccccc1N1CCN(CCCCN2C(=O)c3ccc(CNC(=O)CCOCCNC(=O)c4ccc(CNC(=O)CCc5ccc6n5[B-](F)(F)[N+]5=C(c7ccc[nH]7)C=CC5=C6)cc4)cc3C2=O)CC1", "NanoBRET Fold Response", 0.63),
    ("CCCn1c(=O)c2[nH]c(-c3ccc(OCC(=O)NCCNC(=O)CCOCCNC(=O)c4ccc(CNC(=O)CCc5ccc6n5[B-](F)(F)[N+]5=C(c7ccc[nH]7)C=CC5=C6)cc4)cc3)nc2n(CCC)c1=O", "NanoBRET Fold Response", 0.96),
    ("Cc1nc2n(c(=O)c1CCN1CCC(c3noc4cc(F)ccc34)CC1)CCCC2OC(=O)NCCOCCOCCOCCOCCNC(=O)CCc1ccc2n1[B-](F)(F)[N+]1=C(c3ccc[nH]3)C=CC1=C2 (stereo not drawn)", "NanoBRET Fold Response", 1.18),
]

###

# target: ADRA2B (Homo sapiens)
# Construct: purchased Promega (in-house HiBiT-GPCR construct library, NanoBRET)
# Sequence (P18089 whole entry): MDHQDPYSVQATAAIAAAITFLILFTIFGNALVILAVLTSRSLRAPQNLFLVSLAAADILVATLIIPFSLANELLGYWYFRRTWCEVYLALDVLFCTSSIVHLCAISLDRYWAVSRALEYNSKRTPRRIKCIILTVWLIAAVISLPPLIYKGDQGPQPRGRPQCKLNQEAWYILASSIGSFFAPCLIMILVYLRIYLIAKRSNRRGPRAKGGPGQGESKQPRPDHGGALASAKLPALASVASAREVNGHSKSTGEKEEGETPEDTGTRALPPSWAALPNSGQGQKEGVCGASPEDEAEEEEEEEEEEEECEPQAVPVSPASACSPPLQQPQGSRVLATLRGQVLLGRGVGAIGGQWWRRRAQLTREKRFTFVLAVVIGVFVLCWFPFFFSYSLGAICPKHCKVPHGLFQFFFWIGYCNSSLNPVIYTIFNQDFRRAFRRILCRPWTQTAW
# assay comment: NanoBRET screen HiBiT-ADRA2B in HEK293
# Assay type: binding
# experimental parameters: ADRA2B; tracer 0.1μM

# compound structure string, NanoBRET Fold Response
records = [
    ("COc1ccccc1N1CCN(CCCCN2C(=O)c3ccc(CNC(=O)CCOCCNC(=O)c4ccc(CNC(=O)CCc5ccc6n5[B-](F)(F)[N+]5=C(c7ccc[nH]7)C=CC5=C6)cc4)cc3C2=O)CC1", 4.24),
    ("CC(C)N(CC[C@H](c1ccccc1)c1cc(CCNC(=O)c2ccc(CNC(=O)CCc3ccc4n3[B-](F)(F)[N+]3=C(c5ccc[nH]5)C=CC3=C4)cc2)ccc1O)C(C)C", 1.04),
    ("O=C(CCOCCOCCOCCOCCNC(=O)CCc1ccc2n1[B-](F)(F)[N+]1=C(c3ccc[nH]3)C=CC1=C2)NCCCN1CCN(C2=Nc3ccccc3Oc3ccc(Cl)cc32)CC1", 3.38),
    ("CC(C)N(CC[C@H](c1ccccc1)c1cc(CCNC(=O)CCOCCOCCOCCOCCNC(=O)CCc2ccc3n2[B-](F)(F)[N+]2=C(c4ccc[nH]4)C=CC2=C3)ccc1O)C(C)C", 0.95),
    ("COc1ccccc1N1CCN(CCCCN2C(=O)c3ccc(CNC(=O)CCOCCOCCOCCOCCNC(=O)CCc4ccc5n4[B-](F)(F)[N+]4=C(c6ccc[nH]6)C=CC4=C5)cc3C2=O)CC1", 4.00),
    ("CCCn1c(=O)c2[nH]c(-c3ccc(OCC(=O)NCCNC(=O)CCOCCNC(=O)c4ccc(CNC(=O)CCc5ccc6n5[B-](F)(F)[N+]5=C(c7ccc[nH]7)C=CC5=C6)cc4)cc3)nc2n(CCC)c1=O", 0.91),
    ("N#CN=C(NCCCOc1cccc(CN2CCCCC2)c1)NCCNC(=O)CCOCCOCCOCCOCCNC(=O)CCc1ccc2n1[B-](F)(F)[N+]1=C(c3ccc[nH]3)C=CC1=C2", 1.12),
]

###

# target: HTR1A (Homo sapiens, UniProt P08908)
# Construct: purchased Promega (in-house HiBiT-GPCR construct library, NanoBRET)
# Sequence (P08908 whole entry): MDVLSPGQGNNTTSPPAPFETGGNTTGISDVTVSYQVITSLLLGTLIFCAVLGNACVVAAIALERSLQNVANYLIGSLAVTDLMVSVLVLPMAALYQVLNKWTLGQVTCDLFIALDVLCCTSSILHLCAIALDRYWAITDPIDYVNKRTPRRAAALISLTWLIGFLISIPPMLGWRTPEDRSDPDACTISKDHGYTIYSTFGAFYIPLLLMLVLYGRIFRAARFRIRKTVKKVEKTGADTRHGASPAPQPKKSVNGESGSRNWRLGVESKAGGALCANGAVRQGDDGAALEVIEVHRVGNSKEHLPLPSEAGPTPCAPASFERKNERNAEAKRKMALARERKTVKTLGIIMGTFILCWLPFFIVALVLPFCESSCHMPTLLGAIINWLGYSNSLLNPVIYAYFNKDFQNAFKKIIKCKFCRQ
# assay comment: NanoBRET screen HiBiT-HTR1A in HEK293
# Format: binding
# experimental parameters: HTR1A; tracer 1μM
Decide by NanoBRET Fold Response: equal to or exceeding 1 means met, less means not met.

# compound, assigned category
records = [
    ("O=C(CCc1ccc2n1[B-](F)(F)[N+]1=C(c3ccc[nH]3)C=CC1=C2)NCc1ccc(C(=O)NCCOCCC(=O)N[C@@H]2CC[C@@]3(O)[C@H]4Cc5ccc(O)c6c5[C@@]3(CCN4CC3CC3)[C@H]2O6)cc1 [Naltrexone-3-NB590]", "met"),
    ("CC(C)N(CC[C@H](c1ccccc1)c1cc(CCNC(=O)c2ccc(CNC(=O)CCc3ccc4n3[B-](F)(F)[N+]3=C(c5ccc[nH]5)C=CC3=C4)cc2)ccc1O)C(C)C", "met"),
    ("O=C(CCOCCOCCOCCOCCNC(=O)CCc1ccc2n1[B-](F)(F)[N+]1=C(c3ccc[nH]3)C=CC1=C2)NCCCN1CCN(C2=Nc3ccccc3Oc3ccc(Cl)cc32)CC1", "met"),
    ("CCCn1c(=O)c2[nH]c(-c3ccc(OCC(=O)NCCNC(=O)CCOCCNC(=O)c4ccc(CNC(=O)CCc5ccc6n5[B-](F)(F)[N+]5=C(c7ccc[nH]7)C=CC5=C6)cc4)cc3)nc2n(CCC)c1=O", "not met"),
]

###

# target: ADRA2A (Homo sapiens, UniProt P08913)
# Construct: purchased Promega (in-house HiBiT-GPCR construct library, NanoBRET)
# Sequence (P08913 whole entry): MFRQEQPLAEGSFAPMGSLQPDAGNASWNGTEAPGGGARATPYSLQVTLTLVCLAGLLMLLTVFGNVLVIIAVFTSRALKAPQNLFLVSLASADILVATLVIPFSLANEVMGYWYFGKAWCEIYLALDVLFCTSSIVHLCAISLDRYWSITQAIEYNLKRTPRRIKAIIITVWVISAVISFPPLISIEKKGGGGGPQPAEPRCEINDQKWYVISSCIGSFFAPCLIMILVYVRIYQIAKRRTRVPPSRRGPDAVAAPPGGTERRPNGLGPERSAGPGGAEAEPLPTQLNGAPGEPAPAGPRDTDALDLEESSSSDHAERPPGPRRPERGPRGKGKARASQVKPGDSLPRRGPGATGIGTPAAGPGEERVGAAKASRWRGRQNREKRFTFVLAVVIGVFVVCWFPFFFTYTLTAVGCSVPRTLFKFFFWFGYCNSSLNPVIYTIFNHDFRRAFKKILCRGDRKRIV
# assay comment: NanoBRET screen HiBiT-ADRA2A in HEK293
# Format: binding
# experimental parameters: ADRA2A; tracer 0.1μM
Readings of NanoBRET Fold Response for the listed molecules
assay metric: NanoBRET Fold Response

# molecule, experimental value
measured = [
    ("Cc1cc2c(s1)Nc1ccccc1N=C2N1CCN(CCCNC(=O)CCOCCOCCOCCOCCNC(=O)CCc2ccc3n2[B-](F)(F)[N+]2=C(c4ccc[nH]4)C=CC2=C3)CC1 [Olanzapine-a-2-NB590]", 1.00),
    ("O=C(CCc1ccc2n1[B-](F)(F)[N+]1=C(c3ccc[nH]3)C=CC1=C2)NCCOCCOCCNC(=O)OCCOCCN1CCN(C2=Nc3ccccc3Sc3ccccc32)CC1 [Quetiapine-a-2-NB590]", 1.10),
    ("CCCn1c(=O)c2[nH]c(-c3ccc(OCC(=O)NCCNC(=O)CCOCCNC(=O)c4ccc(CNC(=O)CCc5ccc6n5[B-](F)(F)[N+]5=C(c7ccc[nH]7)C=CC5=C6)cc4)cc3)nc2n(CCC)c1=O [XAC-3-NB590]", 0.97),
    ("N#CN=C(NCCCOc1cccc(CN2CCCCC2)c1)NCCNC(=O)CCOCCOCCOCCOCCNC(=O)CCc1ccc2n1[B-](F)(F)[N+]1=C(c3ccc[nH]3)C=CC1=C2 [Aminopotentidine-2-NB590]", 1.04),
    ("O=C(CCc1ccc2n1[B-](F)(F)[N+]1=C(c3ccc[nH]3)C=CC1=C2)NCc1ccc(C(=O)NCCOCCC(=O)N[C@@H]2CC[C@@]3(O)[C@H]4Cc5ccc(O)c6c5[C@@]3(CCN4CC3CC3)[C@H]2O6)cc1 [Naltrexone-3-NB590]", 1.12),
    ("COc1ccccc1N1CCN(CCCCN2C(=O)c3ccc(CNC(=O)CCOCCOCCOCCOCCNC(=O)CCc4ccc5n4[B-](F)(F)[N+]4=C(c6ccc[nH]6)C=CC4=C5)cc3C2=O)CC1 [NAN-190-2-NB590]", 2.17),
    ("Cc1nc2n(c(=O)c1CCN1CCC(c3noc4cc(F)ccc34)CC1)CCCC2OC(=O)NCCOCCOCCOCCOCCNC(=O)CCc1ccc2n1[B-](F)(F)[N+]1=C(c3ccc[nH]3)C=CC1=C2 (centres unmarked) [Risperidone-2-NB590]", 1.29),
    ("CC(C)N(CC[C@H](c1ccccc1)c1cc(CCNC(=O)c2ccc(CNC(=O)CCc3ccc4n3[B-](F)(F)[N+]3=C(c5ccc[nH]5)C=CC3=C4)cc2)ccc1O)C(C)C [Tolterodine-BZ-NB590]", 1.08),
    ("O=C(CCOCCOCCOCCOCCNC(=O)CCc1ccc2n1[B-](F)(F)[N+]1=C(c3ccc[nH]3)C=CC1=C2)NCCCN1CCN(C2=Nc3ccccc3Oc3ccc(Cl)cc32)CC1 [Loxapine-a-2-NB590]", 0.99),
    ("CC(C)N(CC[C@H](c1ccccc1)c1cc(CCNC(=O)CCOCCOCCOCCOCCNC(=O)CCc2ccc3n2[B-](F)(F)[N+]2=C(c4ccc[nH]4)C=CC2=C3)ccc1O)C(C)C [Tolterodine-2-NB590]", 1.00),
    ("COc1ccccc1N1CCN(CCCCN2C(=O)c3ccc(CNC(=O)CCOCCNC(=O)c4ccc(CNC(=O)CCc5ccc6n5[B-](F)(F)[N+]5=C(c7ccc[nH]7)C=CC5=C6)cc4)cc3C2=O)CC1 [NAN-190-3-NB590]", 2.11),
]
